Test system: HCT-15 colon
Method Notes: NCI tumour cell line growth inhibition, 48 h
Metric: TGI

compound=O=Cc1ccc(-c2ccc(-c3ccc(C=O)s3)o2)s1 value="> 100 µM"
compound="CC1C(c2ccc3c(c2)OCO3)c2cc3c(cc2OC1N1CCCC1)OCO3 (centres undefined)" value="> 100 µM"
compound=Cc1cc(NS(=O)(=O)c2ccc(NC(=O)c3cccc4c(N)c5ccccc5nc34)cc2)no1 value="> 100 µM"
compound="CC(C)CCC1(O)O[C@H]2C[C@H]3[C@@H]4CCC5CC(=O)C=C[C@]5(C)[C@H]4CC[C@]3(C)[C@H]2[C@@H]1C (some centres undefined)" value="23.4 µM"

Each recorded value in this set is attributed to PubChem BioAssay (NCI).
